Target: HBO-KAT7 (Homo sapiens, UniProt O95251)
Construct: encoding amino acid residues 325 to 611 (Uniprot 095251-1) of human KAT7; made in house; host or cells: E. coli BL21 DE3 RIL
Sequence (O95251 with tags, fused parts or gaps): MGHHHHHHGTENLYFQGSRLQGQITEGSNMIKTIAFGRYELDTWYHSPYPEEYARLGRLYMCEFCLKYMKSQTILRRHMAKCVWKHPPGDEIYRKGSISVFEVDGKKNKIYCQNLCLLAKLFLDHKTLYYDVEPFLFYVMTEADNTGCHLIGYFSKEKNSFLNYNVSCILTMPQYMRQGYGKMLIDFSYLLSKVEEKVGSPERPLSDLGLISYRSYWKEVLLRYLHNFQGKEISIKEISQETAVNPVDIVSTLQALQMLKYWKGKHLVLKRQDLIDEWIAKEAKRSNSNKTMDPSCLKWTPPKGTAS
Test: Revised Acetyltransferase Biochemical Assay, KAT7
Conditions: Table 9 (HBO-KAT7), 1 μM Acetyl coenzyme A
Value Type: IC50 (nM)

A selection of reference data follows.
O=C(NCCc1ccccc1)C1=Nc2ccc(I)cc2S(=O)(=O)N1: 1790
Cc1cc(O)cc(C(CNC(=O)C2=Nc3ccc(Cl)cc3S(=O)(=O)N2)c2ncco2)c1 (stereo not shown): 72
Cc1ccc(C(CNC(=O)C2=Nc3ccc(Cl)cc3S(=O)(=O)N2)c2ncco2)cc1 (stereo not shown): 1630
COc1ccccc1C(CNC(=O)C1=Nc2ccc(I)cc2S(=O)(=O)N1)c1ncco1 (stereo not shown): 114
CS(=O)(=O)Nc1ccc2c(c1)S(=O)(=O)NC(C(=O)NCC(c1ccccc1)c1ncco1)=N2 (stereo not shown): 672
O=C(NCC(c1ncco1)c1ccccc1I)C1=Nc2ccccc2S(=O)(=O)N1 (stereo not shown): 4150
O=C(NCC(c1cccc(Cl)c1)c1ncco1)C1=Nc2ccc(I)cc2S(=O)(=O)N1 (stereo not shown): 115
O=C(NCCC1CCCCC1)C1=Nc2ccc(I)cc2S(=O)(=O)N1: 59500

I. COCC(CNC(=O)C1=Nc2ccc(Cl)cc2S(=O)(=O)N1)c1ccccc1 (stereo not shown)
II. O=C(NCC(c1cccc(-c2ccccc2)c1)c1ncco1)C1=Nc2ccccc2S(=O)(=O)N1 (stereo not shown)
Problem: Select one: I or II . Criterion: greater recorded IC50. Output the label that corresponds to your choice.
Solution: II

---

Target: TIP60-KAT5 (Homo sapiens, UniProt Q92993)
Construct: encoding amino acid residues 2 to 461 (Uniprot Q92993-2) of human KAT5 isoform; made in house; host or cells: E. coli BL21 DE3
Sequence (Q92993 2-461 isoform Q92993-2): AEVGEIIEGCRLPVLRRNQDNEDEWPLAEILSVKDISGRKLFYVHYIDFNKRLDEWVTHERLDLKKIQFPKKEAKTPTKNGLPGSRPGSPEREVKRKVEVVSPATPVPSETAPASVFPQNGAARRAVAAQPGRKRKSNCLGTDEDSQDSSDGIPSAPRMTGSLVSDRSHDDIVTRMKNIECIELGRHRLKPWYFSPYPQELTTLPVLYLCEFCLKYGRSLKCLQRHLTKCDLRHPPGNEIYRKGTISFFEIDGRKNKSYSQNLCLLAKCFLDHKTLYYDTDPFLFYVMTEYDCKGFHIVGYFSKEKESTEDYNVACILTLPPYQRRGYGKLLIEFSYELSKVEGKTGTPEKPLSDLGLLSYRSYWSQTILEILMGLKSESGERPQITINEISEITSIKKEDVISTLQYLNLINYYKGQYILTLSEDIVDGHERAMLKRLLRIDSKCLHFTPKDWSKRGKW
Assay: Revised Acetyltransferase Biochemical Assay, KAT5
Conditions: 10 nM KAT5, 1 μM AcCoA, 100 nM histone H4, 90 min
Value Type: IC50 (µM)

CC(=O)NC(C)c1ccc2c(c1)S(=O)(=O)NC(C(=O)NCC(c1ccccc1)c1ncco1)=N2 (centres unmarked): 24.7
O=C(NCC(c1ccccc1)c1ncco1)C1=Nc2ccc(I)cc2S(=O)(=O)N1 (centres unmarked) [Example 41]: 0.032

a. CC(N)c1ccc2c(c1)S(=O)(=O)NC(C(=O)NCC(c1ccccc1)c1ncco1)=N2 (centres unmarked)
b. CS(=O)(=O)c1ccc2c(c1)S(=O)(=O)NC(C(=O)NCC(c1ccccc1)c1ncco1)=N2 (centres unmarked)
Problem: Of the two listed items, which has the higher IC50? First: a Second: b Give the chosen item's label as your response.
Solution: a

---

Biological target: TIP60-KAT5 (Homo sapiens, UniProt Q92993)
Construct: encoding amino acid residues 2 to 461 (Uniprot Q92993-2) of human KAT5 isoform; made in house; host or cells: E. coli BL21 DE3
Assay: Revised Acetyltransferase Biochemical Assay, KAT5
Conditions: 10 nM KAT5, 1 μM AcCoA, 100 nM histone H4, 90 min
pIC50: −log10 of the molar value.
Value Type: pIC50

I. Cc1ccccc1C(CNC(=O)C1=Nc2ccc(I)cc2S(=O)(=O)N1)c1ncco1 (centres unmarked)
II. COCC(CNC(=O)C1=Nc2ccc(Cl)cc2S(=O)(=O)N1)c1ccccc1 (centres unmarked)
III. O=C(NCC(F)(F)c1ccccc1)C1=Nc2ccc(I)cc2S(=O)(=O)N1
Problem: Ordering: ascending pIC50. # answer = labels listed in requested order
Solution: II, III, I
(II: 5.43, III: 5.74, I: 6.79)

I. O=C(NCC(CO)c1ccccc1)C1=Nc2ccccc2S(=O)(=O)N1 (centres unmarked)
II. O=C(NCC(c1ccccc1)c1nnc(C(F)F)o1)C1=Nc2ccc(I)cc2S(=O)(=O)N1 (centres unmarked)
III. O=C(NCC(c1ccccc1)c1ncco1)C1=Nc2ccc(C(=O)O)cc2S(=O)(=O)N1 (centres unmarked)
IV. N#Cc1cccc(C(CNC(=O)C2=Nc3ccccc3S(=O)(=O)N2)c2ncco2)c1 (centres unmarked)
V. COc1ccccc1CCNC(=O)C1=Nc2ccc(I)cc2S(=O)(=O)N1
Problem: Kindly order the items shown according to pIC50, from the highest value down. Response field: labels, in requested order.
Solution: V, II, III, I, IV
(V: 6.28, II: 6.00, III: 5.27, I: 4.22, IV: 4.01)

---

Molecular target: TIP60-KAT5 (Homo sapiens)
Construct: encoding amino acid residues 2 to 461 (Uniprot Q92993-2) of human KAT5 isoform; made in house; host or cells: E. coli BL21 DE3
Assay: Revised Acetyltransferase Biochemical Assay, KAT5
Conditions: 10 nM KAT5, 1 μM AcCoA, 100 nM histone H4, 90 min
pIC50: −log10 of the molar value.
Value Type: pIC50

Would you please look over these solved cases?
CS(=O)(=O)Nc1ccc2c(c1)S(=O)(=O)NC(C(=O)NCC(c1ccccc1)c1ncco1)=N2 (centres unmarked): 5.47
CNC(=O)CCOC(=O)C(CNC(=O)C1=Nc2ccc(I)cc2S(=O)(=O)N1)c1ccccc1 (centres unmarked): 7.17
O=C(NCC(c1ccc(F)cc1)c1ncco1)C1=Nc2ccc(Cl)cc2S(=O)(=O)N1 (centres unmarked): 5.22
O=C(NCC(O)c1ccccc1OC(F)F)C1=Nc2ccc(I)cc2S(=O)(=O)N1 (centres unmarked): 6.14
O=C(NCC(c1ccccc1)c1ncco1)C1=Nc2ccccc2S(=O)(=O)N1 (centres unmarked): 5.39
O=C(NCC(CO)c1ccccc1)C1=Nc2ccc(Cl)cc2S(=O)(=O)N1 (centres unmarked): 5.29
Nc1nnc(C(CNC(=O)C2=Nc3ccc(I)cc3S(=O)(=O)N2)c2ccccc2)o1 (centres unmarked): 5.55
O=C(NCC(c1ccccc1)c1nnc(CC(F)(F)F)o1)C1=Nc2ccc(I)cc2S(=O)(=O)N1 (centres unmarked): 6.91

1. COc1ccc2c(c1)S(=O)(=O)NC(C(=O)NCC(c1cccc(Cl)c1)c1ncco1)=N2 (centres unmarked)
2. O=C(NCC(CCO)c1ccccc1)C1=Nc2ccccc2S(=O)(=O)N1 (centres unmarked)
Problem: Between the two listed entries 1 and 2 , which has its pIC50 at the higher number? Please indicate the selected item by its label.
Solution: 1
(1: 5.48, 2: 4.00)

I. O=C(NCC(c1cccc(I)c1)c1ncco1)C1=Nc2ccccc2S(=O)(=O)N1 (centres unmarked)
II. O=C(NCC(F)(F)c1ccccc1OC(F)F)C1=Nc2ccc(I)cc2S(=O)(=O)N1
Problem: Thinking about recorded pIC50 values, which is higher, I or II ? Write down the label of the entry you select.
Solution: II
(II: 6.51, I: 4.88)

1. O=C(NCCc1ccccc1)C1=Nc2ccc(Br)cc2S(=O)(=O)N1
2. O=C(NCC(c1ccccc1)n1cccn1)C1=Nc2ccc(Br)cc2S(=O)(=O)N1 (centres unmarked)
Problem: Higher pIC50: 1 or 2 ? Return value: the label identifying the chosen record.
Solution: 2
(2: 6.37, 1: 5.34)

1. Cc1cccc(C(CNC(=O)C2=Nc3ccc(Cl)cc3S(=O)(=O)N2)c2ncco2)c1 (centres unmarked)
2. O=C(NCC(c1ccccc1)c1ncco1)C1=Nc2ccc(Cl)cc2S(=O)(=O)N1 (centres unmarked)
Problem: For the pair 1 and 2 , which member has the lower pIC50 number? Lab log: write the label of the selected item as the result.
Solution: 1

---

Target: MOZ-KAT6A (Homo sapiens, UniProt Q92794, A567V)
Construct: encoding amino acid residues 507 to 778 (Uniprot Q92794-1) of human KAT6A; made in house; host or cells: E. coli BL21 DE3
Sequence (Q92794 507-778 A567V limits assumed): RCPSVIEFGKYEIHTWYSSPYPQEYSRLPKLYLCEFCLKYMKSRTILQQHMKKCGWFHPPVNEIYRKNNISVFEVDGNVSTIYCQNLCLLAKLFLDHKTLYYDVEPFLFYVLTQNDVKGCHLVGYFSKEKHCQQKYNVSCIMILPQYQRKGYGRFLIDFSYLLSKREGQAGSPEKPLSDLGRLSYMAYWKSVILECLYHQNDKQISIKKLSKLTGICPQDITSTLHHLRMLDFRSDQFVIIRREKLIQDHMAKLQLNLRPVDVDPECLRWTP
Assay: Revised Acetyltransferase Biochemical Assay, KAT6A
Details: Table 8 (MOZ-KAT6A), 1 μM Acetyl coenzyme A
pIC50: −log10 of the molar value.
Value Type: pIC50

O=C(NCCc1ccccc1-n1cccn1)C1=Nc2ccc(I)cc2S(=O)(=O)N1: 7.68
O=C(NCCc1ccccc1-c1ncco1)C1=Nc2ccc(I)cc2S(=O)(=O)N1: 8.00
O=C(NCCc1ccccc1-c1ncco1)C1=Nc2ccccc2S(=O)(=O)N1: 6.50

a. O=C(NCC(c1ccccc1)c1ncco1)C1=Nc2ccc(I)cc2S(=O)(=O)N1 (single isomer, unassigned) [Example 147]
b. O=C(NCC(c1ccccc1)c1nccs1)C1=Nc2ccc(I)cc2S(=O)(=O)N1 (centres unmarked)
c. COc1cccc(C(CNC(=O)C2=Nc3ccc(I)cc3S(=O)(=O)N2)c2ncco2)c1 (centres unmarked)
Problem: // smallest pIC50 at index 0, largest at the end Thanks in advance for listing the labels in the requested order.
Solution: a, c, b
(a: 7.54, c: 7.82, b: 8.40)

P. O=C(NCC1(c2ncco2)CCCC1)C1=Nc2ccccc2S(=O)(=O)N1
Q. Cc1ncccc1-c1ccccc1CCNC(=O)C1=Nc2ccccc2S(=O)(=O)N1
Problem: Compare pIC50: is it lower for P or for Q ? Which one? Tell me its label.
Solution: Q

Taken from patent US20210380548A1.
